Quick reference for Kd among some binders
- targetUnderTest: T1, Human IL22 (human, UniProt Q9GZX6 34-179)
- T1 construct: IL22 of the Biacore and cell assays
- T1 sequence: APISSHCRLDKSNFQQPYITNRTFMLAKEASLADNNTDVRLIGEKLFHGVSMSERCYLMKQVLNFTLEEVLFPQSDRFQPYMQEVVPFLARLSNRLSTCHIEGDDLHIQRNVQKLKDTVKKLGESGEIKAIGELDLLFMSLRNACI
- assay: SPR (Biacore); Fab variant, human IL22
Provide the reading as a plain figure in nM.

Recorded results for 4 binders are shown here.
11041gL6 C91S S96A gH8 D54E (Fab, V domains shown, also called 11041gL13gH15) VH: EVQLVESGGGLVQPGGSLRLSCAVSGFSLSSYAMIWVRQAPGKGLEWIGIIDIEGSTYYASWAKGRFTISRDSSKNTLYLQMNSLRAEDTAVYYCARDRFVGVDIFDPWGQGTLVTVSS VL: AVQLTQSPSSLSASVGDRVTITCQASEDIYTNLAWYQQKPGKAPKLLIYWASTLASGVPSRFSGSGSGTDFTLTISSLQPEDFATYYCQASVYGNAADSRYTFGGGTKVEIKR; 0.0849
11041gL6 C91S gH11 D54E (Fab, V domains shown, V-regions only; also called 11041gL11gH17) VH: EVQLVESGGGLVQPGGSLRLSCAVSGFSLSSYAMIWVRQAPGKGLEWVGIIDIEGSTYYASWAKGRFTISRDNSKNTLYLQMNSLRAEDTAVYYCARDRFVGVDIFDPWGQGTLVTVSS VL: AVQLTQSPSSLSASVGDRVTITCQASEDIYTNLAWYQQKPGKAPKLLIYWASTLASGVPSRFSGSGSGTDFTLTISSLQPEDFATYYCQASVYGNSADSRYTFGGGTKVEIK; 0.0516
11041gL7 C91S gH12 D54E (Fab, V domains shown, V-regions only; also called 11041gL12gH18) VH: EVQLVESGGGLVQPGGSLRLSCAVSGFSLSSYAMIWVRQAPGKGLEWISIIDIEGSTYYASWAKGRFTISRDNSKNTLYLQMNSLRAEDTAVYYCARDRFVGVDIFDPWGQGTLVTVSS VL: AIQLTQSPSSLSASVGDRVTITCQASEDIYTNLAWYQQKPGKAPKLLIYWASTLASGVPSRFSGSGSGTDFTLTISSLQPEDFATYYCQASVYGNSADSRYTFGGGTKVEIK; 0.0739
11041gL1gH5 (Fab, V domains shown, V-regions only) VH: EVQLVESGGGLVQPGGSLRLSCAVSGFSLSSYAMIWVRQAPGKGLEWIGIIDIDGSTYYASWAKGRFTISRDNSKNTVYLQMNSLRAEDTAVYYCARDRFVGVDIFDPWGQGTLVTVSS VL: AVVLTQSPSSLSASVGDRVTITCQASEDIYTNLAWYQQKPGKAPKLLIYWASTLASGVPSRFSGSGSGTDFTLTISSLQPEDFATYYCQACVYGNSADSRYTFGGGTKVEIK; 0.378

Then this binder:
Task: Please give the measured Kd for this binder: 11041gL1 C91V gH1 (Fab, V domains shown, V-regions only; also called 11041gL3gH1) VH: EVQLVESGGGLVQPGGSLRLSCAVSGFSLSSYAMIWVRQAPGKGLEWIGIIDIDGSTYYASWAKGRFTISRDSSKNTVYLQMNSLRAEDTAVYYCARDRFVGVDIFDPWGQGTLVTVSS VL: AVVLTQSPSSLSASVGDRVTITCQASEDIYTNLAWYQQKPGKAPKLLIYWASTLASGVPSRFSGSGSGTDFTLTISSLQPEDFATYYCQAVVYGNSADSRYTFGGGTKVEIK
Output: 0.0419
